Where do the numbers come from? From ChEMBL document CHEMBL4219120.

- Study Target: UniProt P11387
- Assay: Inhibition of recombinant human topoisomerase 1 assessed as decrease in relaxation of supercoiled pBR322 DNA at 20 uM after 30 mins by agarose gel electrophoresis relative to camptothecin
Measured Metric: fold change (FC)

Sample records with fold change (FC):
Oc1cccc(-c2cc(-c3ccccc3Cl)nc3c2COc2ccccc2-3)c1 : 0.05
Oc1cccc(-c2cc(-c3cccc(Cl)c3)nc3c2oc2ccccc23)c1 : 2.02
Oc1ccc(-c2cc(-c3cccc(Cl)c3)nc3c2oc2ccccc23)cc1 : 1.29
Oc1ccc(-c2cc(-c3ccccc3Cl)nc3c2oc2ccccc23)cc1 : 1.99
Oc1ccccc1-c1cc(-c2ccc(Cl)cc2)nc2c1oc1ccccc12 : 0.93

# fold change (FC) lookup, item Oc1ccccc1-c1cc(-c2cccc(Cl)c2)nc2c1oc1ccccc12
0.38

# fold change (FC) lookup, item Oc1cccc(-c2cc(-c3ccc(Cl)cc3)nc3c2oc2ccccc23)c1
2.09

# fold change (FC) lookup, item Oc1cccc(-c2cc(-c3ccccc3Cl)nc3c2oc2ccccc23)c1
0.98

# fold change (FC) lookup, item Oc1ccc(-c2cc(-c3ccc(Cl)cc3)nc3c2oc2ccccc23)cc1
1.4

###

- Study Target: DNA topoisomerase 2-alpha (Homo sapiens)
- Assay: Inhibition of recombinant human topoisomerase 2alpha assessed as decrease in relaxation of supercoiled pBR322 DNA at 20 uM after 30 mins by agarose gel electrophoresis relative to control
# inhibition listing for each entry below

Oc1ccccc1-c1cc(-c2cccc(Cl)c2)nc2c1COc1ccccc1-2 : 51.9%
Oc1ccccc1-c1cc(-c2ccc(Cl)cc2)nc2c1COc1ccccc1-2 : 56.6%
Oc1ccc(-c2cc(-c3cccc(Cl)c3)c3c(n2)-c2ccccc2OC3)cc1 : 12.1%
Oc1cccc(-c2cc(-c3ccccc3Cl)nc3c2COc2ccccc2-3)c1 : 57.3%
Oc1cccc(-c2cc(-c3ccc(Cl)cc3)nc3c2COc2ccccc2-3)c1 : 63.8%

# inhibition lookup, item Oc1ccc(-c2cc(-c3ccc(Cl)cc3)c3c(n2)-c2ccccc2OC3)cc1
19.9%

# inhibition lookup, item Oc1cccc(-c2cc(-c3ccccc3Cl)c3c(n2)-c2ccccc2OC3)c1
57%

# inhibition lookup, item Oc1ccc(-c2cc(-c3ccc(Cl)cc3)nc3c2COc2ccccc2-3)cc1
41.9%

# inhibition lookup, item Oc1ccc(-c2cc(-c3cccc(Cl)c3)nc3c2COc2ccccc2-3)cc1
57.3%

###

- System: HCT-15
- Assay: Antiproliferative activity against human HCT15 cells after 72 hrs by CCK-8 assay
- Format: functional, cell-based
- Reported Conditions: HCT-15, 72 h
pIC50: −log10 of the molar value.
Measured Metric: pIC50

Oc1ccc(-c2cc(-c3cccc(Cl)c3)nc3c2COc2ccccc2-3)cc1 : 5.75
Oc1cccc(-c2cc(-c3cccc(Cl)c3)nc3c2COc2ccccc2-3)c1 : 5.67
CC[C@@]1(O)C(=O)OCc2c1cc1n(c2=O)Cc2cc3ccccc3nc2-1 : 7.70
Oc1cccc(-c2cc(-c3ccccc3Cl)c3c(n2)-c2ccccc2OC3)c1 : 5.82
Oc1ccc(-c2cc(-c3cccc(Cl)c3)c3c(n2)-c2ccccc2OC3)cc1 : 5.47
Oc1cccc(-c2cc(-c3ccc(Cl)cc3)nc3c2COc2ccccc2-3)c1 : 5.64
Oc1ccccc1-c1cc(-c2cccc(Cl)c2)nc2c1COc1ccccc1-2 : 5.65

###

- Study Target: DNA topoisomerase 2-alpha (Homo sapiens)
- Assay: Inhibition of recombinant human topoisomerase 2alpha assessed as decrease in relaxation of supercoiled pBR322 DNA at 100 uM after 30 mins by agarose gel electrophoresis relative to etoposide
Measured Metric: fold change (FC)

Sample records with fold change (FC):
Oc1cccc(-c2cc(-c3ccc(Cl)cc3)nc3c2COc2ccccc2-3)c1 : 1.07
Oc1cccc(-c2cc(-c3cccc(Cl)c3)nc3c2COc2ccccc2-3)c1 : 1.26

(1) Oc1ccc(-c2cc(-c3cccc(Cl)c3)nc3c2COc2ccccc2-3)cc1
(2) Oc1cccc(-c2cc(-c3ccccc3Cl)nc3c2oc2ccccc23)c1
Lower value of fold change (FC) belongs to which: 1 or 2 ? Please indicate the selected item by its label.
2

###

- Study Target: DNA topoisomerase 1 (Homo sapiens) (UniProt P11387)
- Assay: Inhibition of recombinant human topoisomerase 1 assessed as decrease in relaxation of supercoiled pBR322 DNA at 100 uM after 30 mins by agarose gel electrophoresis relative to camptothecin
The source made the active and inactive calls. No cut-off for these calls is given here.
Measured Metric: fold change (FC)

Sample records with fold change (FC):
Oc1ccccc1-c1cc(-c2ccccc2Cl)nc2c1oc1ccccc12 : 0.18
Oc1ccc(-c2cc(-c3cccc(Cl)c3)nc3c2oc2ccccc23)cc1 : 1.56
Oc1cccc(-c2cc(-c3cccc(Cl)c3)nc3c2oc2ccccc23)c1 : 1.12
Oc1ccc(-c2cc(-c3cccc(Cl)c3)nc3c2COc2ccccc2-3)cc1 : inactive
Oc1ccccc1-c1cc(-c2ccc(Cl)cc2)nc2c1oc1ccccc12 : 1.39

# fold change (FC) lookup, item Oc1ccc(-c2cc(-c3ccc(Cl)cc3)nc3c2oc2ccccc23)cc1
1.62

# fold change (FC) lookup, item Oc1cccc(-c2cc(-c3ccc(Cl)cc3)nc3c2oc2ccccc23)c1
1.32

# fold change (FC) lookup, item Oc1ccc(-c2cc(-c3ccc(Cl)cc3)nc3c2COc2ccccc2-3)cc1
inactive

###

- Study Target: DNA topoisomerase 1 (Homo sapiens)
- Assay: Inhibition of recombinant human topoisomerase 1 assessed as decrease in relaxation of supercoiled pBR322 DNA at 100 uM after 30 mins by agarose gel electrophoresis relative to control
Active and inactive are the calls of the source. The rule behind the calls is not given here.
Measured Metric: inhibition

Sample records with inhibition:
Oc1cccc(-c2cc(-c3cccc(Cl)c3)nc3c2COc2ccccc2-3)c1 : 30%
Oc1cccc(-c2cc(-c3ccccc3Cl)c3c(n2)-c2ccccc2OC3)c1 : inactive
Oc1ccc(-c2cc(-c3ccc(Cl)cc3)nc3c2COc2ccccc2-3)cc1 : inactive
Oc1ccc(-c2cc(-c3ccccc3Cl)nc3c2COc2ccccc2-3)cc1 : inactive

Please turn your attention to the following entry.
Hi! What's the reported inhibition for Oc1ccc(-c2cc(-c3cccc(Cl)c3)c3c(n2)-c2ccccc2OC3)cc1 on DNA topoisomerase 1 (Homo sapiens)?
22.8%

###

- Study Target: UniProt P11387
- Sequence (whole entry): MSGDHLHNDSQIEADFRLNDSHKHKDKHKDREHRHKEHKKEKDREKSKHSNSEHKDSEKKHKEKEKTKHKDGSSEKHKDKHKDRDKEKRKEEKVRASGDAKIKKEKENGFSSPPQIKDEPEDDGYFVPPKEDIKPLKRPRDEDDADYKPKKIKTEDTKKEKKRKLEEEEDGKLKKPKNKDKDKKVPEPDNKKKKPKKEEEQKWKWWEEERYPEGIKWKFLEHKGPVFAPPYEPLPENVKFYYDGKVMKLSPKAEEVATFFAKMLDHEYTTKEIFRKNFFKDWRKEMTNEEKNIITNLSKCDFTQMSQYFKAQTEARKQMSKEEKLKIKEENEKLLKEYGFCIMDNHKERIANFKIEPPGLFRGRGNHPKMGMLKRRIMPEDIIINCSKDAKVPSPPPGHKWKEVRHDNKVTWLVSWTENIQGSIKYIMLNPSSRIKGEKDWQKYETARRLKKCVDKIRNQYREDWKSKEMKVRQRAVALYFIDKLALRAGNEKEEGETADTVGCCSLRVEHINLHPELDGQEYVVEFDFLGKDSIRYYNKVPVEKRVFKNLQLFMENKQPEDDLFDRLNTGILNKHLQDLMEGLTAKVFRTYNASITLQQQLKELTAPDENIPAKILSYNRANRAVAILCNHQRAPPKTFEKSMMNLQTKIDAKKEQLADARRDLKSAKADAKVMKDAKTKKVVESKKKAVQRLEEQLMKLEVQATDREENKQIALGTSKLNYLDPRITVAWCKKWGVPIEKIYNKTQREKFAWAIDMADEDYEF
- Assay: Inhibition of recombinant human topoisomerase 1 assessed as decrease in relaxation of supercoiled pBR322 DNA at 100 uM after 30 mins by agarose gel electrophoresis relative to camptothecin
Measured Metric: fold change (FC)

Oc1cccc(-c2cc(-c3ccccc3Cl)nc3c2oc2ccccc23)c1 : 1.22
Oc1ccccc1-c1cc(-c2cccc(Cl)c2)nc2c1COc1ccccc1-2 : 0.06
Oc1ccccc1-c1cc(-c2cccc(Cl)c2)nc2c1oc1ccccc12 : 1.01
Oc1ccccc1-c1cc(-c2ccc(Cl)cc2)nc2c1COc1ccccc1-2 : 0.1
Oc1cccc(-c2cc(-c3cccc(Cl)c3)nc3c2COc2ccccc2-3)c1 : 0.36
Oc1cccc(-c2cc(-c3ccc(Cl)cc3)nc3c2COc2ccccc2-3)c1 : 0.36
Oc1cccc(-c2cc(-c3ccccc3Cl)nc3c2COc2ccccc2-3)c1 : 0.99
Oc1ccccc1-c1cc(-c2ccccc2Cl)nc2c1COc1ccccc1-2 : 0.06

Please turn your attention to the following entry.
# fold change (FC) lookup, item Oc1ccc(-c2cc(-c3ccccc3Cl)nc3c2oc2ccccc23)cc1
1.39

###

- Study Target: UniProt:P11387
- Assay: Inhibition of recombinant human topoisomerase 1 assessed as decrease in relaxation of supercoiled pBR322 DNA at 20 uM after 30 mins by agarose gel electrophoresis relative to control
Calls of active or inactive are those of the source. The calls are words filed in the database; no cut-off is given here.
Measured Metric: inhibition

Oc1ccc(-c2cc(-c3ccc(Cl)cc3)c3c(n2)-c2ccccc2OC3)cc1 : 1.7%
Oc1cccc(-c2cc(-c3cccc(Cl)c3)nc3c2COc2ccccc2-3)c1 : inactive
Oc1ccc(-c2cc(-c3ccccc3Cl)c3c(n2)-c2ccccc2OC3)cc1 : inactive
Oc1cccc(-c2cc(-c3ccccc3Cl)nc3c2COc2ccccc2-3)c1 : 1.7%
